Catalogue of relative binding affinity (ratio to native VEGF (8-109)) values
testTarget: T1, KDR (1-3) (UniProt P35968 20-327, limits assumed)
T1 construct: domain: KDR (1-3); Soluble KDR (1-3) at 1 ug/ml, captured on anti-KDR antibody MAKD5; also called KDR (1-3) monomer
T1 sequence (P35968 20-327 limits assumed): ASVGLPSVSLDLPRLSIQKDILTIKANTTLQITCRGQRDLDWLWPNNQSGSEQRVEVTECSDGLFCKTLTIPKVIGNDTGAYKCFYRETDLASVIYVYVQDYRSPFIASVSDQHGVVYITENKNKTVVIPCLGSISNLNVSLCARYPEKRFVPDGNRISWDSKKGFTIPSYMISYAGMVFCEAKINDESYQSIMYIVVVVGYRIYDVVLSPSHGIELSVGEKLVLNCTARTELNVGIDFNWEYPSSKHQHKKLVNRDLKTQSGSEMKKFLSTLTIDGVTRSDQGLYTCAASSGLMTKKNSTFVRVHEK
assay: competition ELISA: displacement of biotinylated native VEGF (8-109) from KDR (1-3)
propertyMeasured: relative binding affinity (ratio to native VEGF (8-109)) (fold)

>  <binder>
LK-VRB-23s (ligand) APMAEGGGQNHHEVVKFEDVLRRSSCHPIETLVDIFQEYPDEIEYIFKPSCVPLMRCGGCCNDEGRECVPTEESNITMQIMRIKPHQGQHIGEMSFLQHNKCECRPKKD

>  <reportedValue>
11

$$$$
>  <binder>
LK-VRB-21s (ligand) APMAEGGGQNHHEVVKFEDVLRRSSCHPIETLVDIFQEYPDEIEYIFKPSCVPLMRCGGCCNSEGLECVPTEESNITMQIMRIKPHQGQHIGEMSFLQHNKCECRPKKD

>  <reportedValue>
3

$$$$
>  <binder>
LK-VRB-25s (ligand) APMAEGGGQNHHEVVKFEDVLRRSSCHPIETLVDIFQEYPDEIEYIFKPSCVPLMRCGGCCNSEGRECVPTEESNITMQIMRIKPHQGQHIGEMSFLQHNKCECRPKKD

>  <reportedValue>
4

$$$$
>  <binder>
LK-VRB-26s (ligand) APMAEGGGQNHHEVVKFEDVLRRSSCHPIETLVDIFQEYPDEIEYIFKPSCVPLMRCGGCCNDEMRECVPTEESNITMQIMRIKPHQGQHIGEMSFLQHNKCECRPKKD

>  <reportedValue>
23

$$$$
>  <binder>
LK-VRB-17s (ligand) APMAEGGGQNHHEVVKFEDVLRRSYCHPIETLVDIFQEYPDEIEYIFKPSCVPLMRCGGCCNSEMRECVPTEESNITMQIMRIKPHQGQHIGEMSFLQHNKCECRPKKD

>  <reportedValue>
3

$$$$
>  <binder>
LK-VRB-7s* (ligand) APMAEGGGQNHHEVVKFEDVYQRSYCHPIETLVDIFQEYPDEIEYIFKPSCVPLMRCGGCCNSEMRECVPTEESNITMQIMRIKPHQGQHIGEMSFLQHNKCECRPKKD

>  <reportedValue>
1

$$$$
